tested on: KM12; assay: NCI tumour cell line growth inhibition, 48 h
The source made the active and inactive calls. No stated cut-off is given here; in the data, active = GI50 up to about 1.1 µM and inactive = higher.
measurementName: GI50

molecule: COc1ccc(/N=N/c2c(C)c(C#N)c(=S)n(C3OC(COC(C)=O)C(OC(C)=O)C(OC(C)=O)C3OC(C)=O)c2-c2ccccc2)cc1 (centres undefined)
GI50: 8.43 µM (inactive)

molecule: CC(C(=O)O)/C(=C\c1ccc2c(c1)OCO2)C(=O)O (centres undefined)
GI50: > 100 µM (inactive)

molecule: CCOC(=O)C1=C(C(=O)c2ccc(C)cc2)C(c2cccc([N+](=O)[O-])c2)C(C(=O)c2ccc(C)cc2)=C(C(=O)OCC)N1
GI50: 12.8 µM (inactive)

molecule: c1ccc2c(c1)[nH]c1c2nc2ncccn21
GI50: > 100 µM (inactive)

molecule: COC(=O)c1c(OC(C)=O)ccc2c1c1cc3ccccc3c(OC(C)=O)c1n2C
GI50: 34.6 µM (inactive)

Looking up `COC(=O)C(=O)CC(=O)c1cccc(OC)c1` , I found its GI50 recorded as > 100 µM (inactive)
